Target: hROMK (hKir1.1) (Homo sapiens)
Sequence (P48048 1-391): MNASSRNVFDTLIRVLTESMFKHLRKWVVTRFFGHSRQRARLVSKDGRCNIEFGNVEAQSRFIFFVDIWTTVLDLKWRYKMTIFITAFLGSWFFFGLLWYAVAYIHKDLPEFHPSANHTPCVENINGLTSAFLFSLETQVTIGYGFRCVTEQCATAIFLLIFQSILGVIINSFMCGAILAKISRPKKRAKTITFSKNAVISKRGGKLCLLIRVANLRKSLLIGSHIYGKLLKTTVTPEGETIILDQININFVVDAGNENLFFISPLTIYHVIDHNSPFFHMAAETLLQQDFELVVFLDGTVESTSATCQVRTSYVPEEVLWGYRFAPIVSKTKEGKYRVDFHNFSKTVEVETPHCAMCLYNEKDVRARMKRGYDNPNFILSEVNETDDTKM
Assay: Thallium Flux Assay (ROMK channel functional thallium flux, FLIPR-Tetra)
Conditions: HEK293 cells stably expressing hROMK (hKir1.1); 30 min compound incubation
Description: The following Thallium Flux Assay was performed on each of the final product compounds in the Examples. Cell Culture Conditions—HEK293 cells stably expressing hROMK (hKir1.1) were grown at 37° C. in a 10% CO2 humidified incubator in complete growth media: Dulbecco's Modified Eagle Medium supplemented with non-essential amino acids, Penicillin/Streptomycin/Glutamine, G418 and FBS. […] At FLIPR-Tetra 384: Add stimulant (Thallium/Potassium) solution to microplate and monitor fluorescence. […]
Recorded metric: IC50 (µM)
One number for each entry, in µM.

INSERT INTO assay_data (molecule, unit_name, recorded_measurement) VALUES
  ('COC1CN(C2=CC(=O)OC2)C(=O)C12CCN(C[C@H](O)c1ccc(-n3cnnn3)nc1)CC2 (mixture of isomers) [Example 206]', 'µM', 0.05),
  ('O=C1C=C(N2C(=O)C3(CCN(C[C@H](O)c4cnc(-n5cnnn5)cn4)CC3)CC2CF)CO1 (single isomer, unassigned) [Example 205]', 'µM', 0.03);

Provide the reported IC50 of each entry below, same order.
1. COC1CN(C2=C(C)C(=O)OC2)C(=O)C12CC1CCC(C2)N1C[C@H](O)c1ccc(-n2cnnn2)nc1 (single isomer, unassigned) [Example 161]
2. COc1cc(-n2cnnn2)ccc1[C@H](O)CN1CCC2(CC1)CCN(C1=C(C)C(=O)OC1)C2=O [Example 120]
3. O=C1C=C(N2C(=O)C3(CCN(C[C@H](O)c4ccc(-n5cnnn5)cn4)CC3)CC2C2CC2)CO1 (mixture of isomers) [Example 222]

(A)
0.03
0.01
0.1

(Q) Field request: IC50 | item: CCC1CC2(CCN(C[C@H](O)c3ccc(-n4cnnn4)nc3)CC2)C(=O)N1C1=CC(=O)OC1 (mixture of isomers) [Example 218]
(A) 0.01
